Tested on: HSV-2
assay_remarks: dye uptake method: prevention of HSV-2 cytopathic effect in Vero cells, acyclovir with ribonucleotide reductase inhibitor (Compound A)
Format: cell-based
details: Human alphaherpesvirus 2, Vero, 72 h, read-out: IC50 Observed (concentration of ACV required to inhibit HSC2 replication by 50%)
readout_kind: IC50 (µM)
Report only the number, with the unit µM understood.

## Task Bench note: what IC50 did Nc1nc2c(ncn2COCCO)c(=O)[nH]1 [ACV, 9-(2-hydroxyethoxymethyl)guanine, reference compound] show?
## Result 5.77

Reference source: patent US5393883A
